# reported MIC90; entries follow
test system: Cladosporium; experiment: Antimicrobial activity against Cladosporium spp. by broth microdilution method; type: functional
*1 amine or outer side, *2 acyl side, *3 side chain or, on linkers, in order; H or OH if unused. Where a SMILES comes first, the peptide text is derived from it. Bridges are numbered along the chain shown (N, C = ends). [ ]: non-standard residue; d: D form. The star is where a group is joined. hTyr(3S-OH,4S-OH,3'-OSO3H) = N[C@H](C(=O)O)[C@H](O)[C@@H](O)c1ccc(O)c(OS(=O)(=O)O)c1; pTerphenylCO(4''-OnC5H11) = CCCCCOc1ccc(-c2ccc(-c3ccc(C(=O)*)cc3)cc2)cc1; Orn(4R-OH,5R-OH) = O=C([C@H](C[C@@H](O)[C@@H](O)N[*:3])N[*:1])[*:2]; hTyr(3S-OH,4S-OH) = N[C@H](C(=O)O)[C@H](O)[C@@H](O)c1ccc(O)cc1; Pro(3S-OH,4S-Me) = C[C@H]1CN[C@H](C(=O)O)[C@H]1O; X1 = CCCCCOc1ccc(-c2cc(-c3ccc(C(=O)*)cc3)no2)cc1; Gln(3R-OH) = NC(=O)C[C@@H](O)[C@H](N)C(=O)O; Hyp = O=C(O)[C@@H]1C[C@@H](O)CN1
outcome measure: MIC90

molecule="CC[C@@H]([C@H](C)O)n1ncn(-c2ccc(N3CCN(c4ccc(OC[C@@H]5CO[C@@](Cn6cncn6)(c6ccc(F)cc6F)C5)cc4)CC3)cc2)c1=O [POSACONAZOLE]" measurement_target=Cladosporium result="> 8 µg/mL"
molecule="C[C@@H](c1ncncc1F)[C@](O)(Cn1cncn1)c1ccc(F)cc1F [VORICONAZOLE]" measurement_target=Cladosporium result="> 8 µg/mL"
molecule="C[C@@H]1[C@H](O)[C@@H](C)/C=C/C=C/C=C/C=C/C=C/C=C/C=C/[C@H](O[C@@H]2O[C@H](C)[C@@H](O)[C@H](N)[C@@H]2O)C[C@@H]2O[C@](O)(C[C@@H](O)C[C@@H](O)[C@H](O)CC[C@@H](O)C[C@@H](O)CC(=O)O[C@H]1C)C[C@H](O)[C@H]2C(=O)O [AMPHOTERICIN B]" measurement_target=Cladosporium result="1 µg/mL"
molecule="CCCCCOc1ccc(-c2cc(-c3ccc(C(=O)N[C@H]4C[C@@H](O)[C@@H](O)NC(=O)[C@@H]5[C@@H](O)[C@@H](C)CN5C(=O)[C@H]([C@H](O)CC(N)=O)NC(=O)[C@H]([C@H](O)[C@@H](O)c5ccc(O)c(OS(=O)(=O)O)c5)NC(=O)[C@@H]5C[C@@H](O)CN5C(=O)[C@H]([C@@H](C)O)NC4=O)cc3)no2)cc1 [MICAFUNGIN] (X1-[Orn(4R-OH,5R-OH)]T[Hyp][hTyr(3S-OH,4S-OH,3'-OSO3H)][Gln(3R-OH)][Pro(3S-OH,4S-Me)]; lactam 1-C)" measurement_target=Cladosporium result="0.06 µg/mL"
molecule="CC[C@H](C)C[C@H](C)CCCCCCCCC(=O)N[C@H]1C[C@@H](O)[C@@H](NCCN)NC(=O)[C@@H]2[C@@H](O)CCN2C(=O)[C@H]([C@H](O)CCN)NC(=O)[C@H]([C@H](O)[C@@H](O)c2ccc(O)cc2)NC(=O)[C@@H]2C[C@@H](O)CN2C(=O)[C@H]([C@@H](C)O)NC1=O [CASPOFUNGIN]" measurement_target=Cladosporium result="1 µg/mL"
molecule="CCC(C)n1ncn(-c2ccc(N3CCN(c4ccc(OCC5COC(Cn6cncn6)(c6ccc(Cl)cc6Cl)O5)cc4)CC3)cc2)c1=O (configuration not stated) [ITRACONAZOLE]" measurement_target=Cladosporium result="> 8 µg/mL"
molecule="CCCCCOc1ccc(-c2ccc(-c3ccc(C(=O)N[C@H]4C[C@@H](O)[C@@H](O)NC(=O)[C@@H]5[C@@H](O)[C@@H](C)CN5C(=O)[C@H]([C@@H](C)O)NC(=O)[C@H]([C@H](O)[C@@H](O)c5ccc(O)cc5)NC(=O)[C@@H]5C[C@@H](O)CN5C(=O)[C@H]([C@@H](C)O)NC4=O)cc3)cc2)cc1 [ANIDULAFUNGIN] ({pTerphenylCO(4''-OnC5H11)}-[Orn(4R-OH,5R-OH)]T[Hyp][hTyr(3S-OH,4S-OH)]T[Pro(3S-OH,4S-Me)]; lactam 1-C)" measurement_target=Cladosporium result="0.06 µg/mL"
